I'd be grateful if you could share measured growth for these entries.
Test system: MALME-3M melanoma
assay-name: NCI-60 one-dose screen, 48 h (100 = growth as untreated, 0 = no growth, -100 = all killed)
condition: 10 µM unless noted
About 83,000 compounds went through this panel and 20% of them were active in at least one assay; those are over-represented in the sample as a whole.
Give the value, in units of %, as a plain number.

# value lookup — system MALME-3M melanoma, readout growth, item CC(C)NCCCNC1=C(Cl)C(=O)c2ccccc2C1=O
-78

Form: Entry = Cc1ccc(S(=O)(=O)n2cc(C(=O)C(=O)Nc3ccncc3)c3ccccc32)cc1 | System = MALME-3M melanoma | growth = ____
48.4

Look up growth with MALME-3M melanoma for this molecule: COc1ccc(Nc2nc(N)nc3c2CCN(Cc2ccc(OC)cc2OC)C3=O)cc1
80.8

API: value(readout=growth, system=MALME-3M melanoma) for record C/C=C(\C)C(C(=O)NC1CCCCC1)N(C(=O)C1CCc2cc(F)ccc2O1)c1ccc(Cl)cc1 (stereo unspecified)
109

// lookup growth | system=MALME-3M melanoma | key= COc1ccc(Nc2nn3c(-c4ccccc4)cc(-c4ccccc4)nc3c2C(N)=O)c(OC)c1
44.7

# get_value(readout= growth, system= MALME-3M melanoma) for N#C/C(=C1C=C/C(=N/O)C(Cl)=C/1)c1ccc(Cl)cc1
112

Which measured growth belongs to CN(C)c1nc2c(N)ncnc2n1C1OC(CO)C(O)C1O (stereo unspecified) , tested on MALME-3M melanoma?
88

Provide the documented growth with MALME-3M melanoma as the system for CN(C)CCN1C(=O)c2ccc3c4c(ccc(c24)C1=O)C(=O)N(CCN=C=S)C3=O
-63.7

What value of growth on MALME-3M melanoma does Cc1cc(C)n(-c2nnc3n2N=C(c2ccc(-c4ccccc4)cc2)CS3)n1 have?
43.5

Provide value of growth for this record tested with MALME-3M melanoma: O=C1/C(=C/c2ccccc2)CN(C(=O)CCN2CCC(=NO)CC2)C/C1=C\c1ccccc1
-13.2

# query: growth | item O=c1cc/c(=N\Nc2ccccc2)c(=O)/c1=N/Nc1ccccc1 | system: MALME-3M melanoma
119

Kindly state the measured growth obtained for COc1ccc(CCNC2=CC(=O)CCC2)cc1OC with MALME-3M melanoma.
92.2

Identify the measured growth of COc1cc(-c2nn(-c3cccc(NC(=O)Nc4ccc(Cl)c(Cl)c4)c3)cc2-c2ccncc2)ccc1Cl for MALME-3M melanoma.
-19.9

Param readout= growth; system= MALME-3M melanoma; entry= COc1ccc(N2CCN(Cc3cc(C(=O)/C=C/c4c[nH]c5ccccc45)ccc3O)CC2)cc1 ; returns value.
95.6

Notebook: pull reported growth for MALME-3M melanoma, entry N/C(=N\C(N)=N\c1nc2ccccc2s1)c1ccncc1
81.5

Identify the measured growth of COc1ccc(S(=O)(=O)NCCCNc2nccc(-n3ccc4cccnc43)n2)cc1 for MALME-3M melanoma.
121

Param readout= growth; system= MALME-3M melanoma; entry= CN(C[C@H]1Cc2c(cccc2N2CCN(Cc3ccccn3)CC2)CN1)[C@H]1CCCc2cccnc21 ; returns value.
88.3

Find the measured growth: item C=C1CCC2C3(C)COC(c4c(OC)cccc4OC)OC3CCC2(C)C1C/C=C1/C(=O)OCC1O (stereo unspecified) , target or system MALME-3M melanoma.
109

For MALME-3M melanoma, provide growth of O=C(Nc1cccc(-n2cc(-c3ccncc3)c(-c3ccc(Cl)c(O)c3)n2)c1)c1ccc(N2CCOCC2)c(C(F)(F)F)c1 please.
10.7

GET /values?readout=growth&system=MALME-3M melanoma&item= NC(=S)N/N=C(/CCN1CCCC1)CC(C1=C(O)C2=CCCCC2OC1=O)c1ccccc1 (stereo unspecified)
73

Find growth (MALME-3M melanoma) for the entry COc1ccc(-c2cc3c(OC)c(OC)c(OC)cc3oc2=O)cc1
46.9

Hi! What's the reported growth for CC[N+](CC)=c1cc2oc3cc(N(C)C)ccc3nc-2cc1C on MALME-3M melanoma?
-25.5

Hi! What's the reported growth for COc1ccc(S(=O)(=O)n2ccc(-c3ccc4c(c3)CCC(C)(C)O4)n2)cc1OC on MALME-3M melanoma?
114

Lookup: growth / MALME-3M melanoma / CC(C)(C)OC(=O)NC(CSCc1ccccc1)C(=O)ON1C(=O)CCC1=O (stereo unspecified)
101

Lab note: need growth with MALME-3M melanoma for entry NC(=N\N=C/c1ccc(O)cc1)/C(N)=N\N=C/c1ccc(O)cc1 , please look it up.
65.3

Form field - read-out: growth; system: MALME-3M melanoma; submitted item: COc1ccc(-c2nc(/C=N/Nc3cc(C)nc4ccc(Br)cc34)c(C)o2)cc1
-84.6

Give growth (MALME-3M melanoma) of the following molecule: COc1ccc(-c2c(N)n[nH]c2-c2cc(OC)c3c(c2)OCCO3)cc1
39.3

Identify the measured growth of COc1ccc(C(=O)NC(=O)Nc2cc3c(cc2F)/C(=C/c2[nH]c(C)c(CCC(=O)O)c2C)C(=O)N3)c(F)c1 for MALME-3M melanoma.
49.9

Tell me reported growth for COc1ccc(-c2ccc(C)n2-c2ccc(-c3nc4ccccc4s3)cc2)cc1 , tested with MALME-3M melanoma.
108

Hi! What's the reported growth for O=C1NC(=C(Cl)Cl)/C(=N/S(=O)(=O)N2CCC(C3(C(F)(F)F)N=N3)CC2)N1 on MALME-3M melanoma?
100

Hi! What's the reported growth for CC(=O)Oc1csc(N(C(C)=O)c2cc(C(=O)O)cc(C(=O)O)c2)n1 on MALME-3M melanoma?
87.9

Record lookup: for MALME-3M melanoma, what growth belongs to C=C[C@@H]1C[C@H](O)Cc2cc(F)ccc2N1 ?
91.7

Param readout= growth; system= MALME-3M melanoma; entry= COc1ccc(C2C=C(c3ccc(N)cc3)N=C3SC=CN32)cc1OC (stereo unspecified) ; returns value.
92.8

Param readout= growth; system= MALME-3M melanoma; entry= Cc1cc(C(C)(C)C)ccc1S ; returns value.
113

Find growth (MALME-3M melanoma) for the entry COc1ccc(-n2c(-c3ccccc3)c(-c3ccccc3)c3c(SCC(=O)N/N=C/c4ccc(Cl)cc4)ncnc32)cc1
107

Item Cc1cc(N/N=C/c2nc(-c3ccc(Br)cc3)oc2C)c2cc(Br)ccc2n1 with MALME-3M melanoma - growth?
17.4

What reported growth corresponds to CNC(=S)NNC(=O)C1CC1 on MALME-3M melanoma?
111

Query for MALME-3M melanoma: what growth does the record show for CCn1c2ccccc2c2cc(NC(=O)Nc3ccc([N+](=O)[O-])cc3C)ccc21 ?
64.5

What is its growth for MALME-3M melanoma? Entry: C=COC(=O)CCCCCCCCC
104

I'm curious: which growth was measured for Clc1cc(Cl)cc(-c2ccc(-c3ccc(/C=N/NC4=NCCN4)cc3)s2)c1 tested on MALME-3M melanoma?
98.3

Entry COc1ccc(-c2nc(/C=C3/C(=O)Nc4ccc(F)cc43)c3ccccn23)cc1 , system MALME-3M melanoma: what growth was measured?
130
